# test_details: Drug metabolism in rat liver microsomes; note: time not given here
# Format: ADME, Microsome
# particulars: read-out: Drug metabolism
# metabolised per record follows
value_type: metabolised (%)

>>> numeric_readout("CC1CCCN1C1CCN(c2ccc(NC(=O)c3ccc(Cl)cc3)cc2)C1 (centres undefined)")
90
>>> numeric_readout("Cc1cc(C(=O)Nc2ccc(N3CCC(N4CCCC4C)C3)cc2)n[nH]1 (centres undefined)")
37
>>> numeric_readout("CC1CCCN1C1CCN(c2ccc(NC(=O)c3ccccc3F)c(C(F)(F)F)c2)C1 (centres undefined)")
45
>>> numeric_readout("Cc1cc(N2CCC(N3CCCC3C)C2)ccc1NC(=O)c1cccnc1 (centres undefined)")
57
